# studyTarget: canine IL-4RA (construct not given) (canine)
# assayMethodText: SPR, IL-4RA immobilised, periplasmic Fab
measuredQuantity: Improvement over parental (fold)
Numeric only. Scale: fold

Below are worked cases with known answers.
FJ2246MP10B12 (Fab, V domains shown) VH: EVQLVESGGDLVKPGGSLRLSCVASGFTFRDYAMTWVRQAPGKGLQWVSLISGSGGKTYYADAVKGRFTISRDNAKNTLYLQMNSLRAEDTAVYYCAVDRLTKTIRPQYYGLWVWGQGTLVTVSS VL: DIVMTQTPLSLSVSPGETASISCRSSQSLLYSIGYNYLDWYLQKPGQSPQGLIYLGSKRASGVPDRFSGSGNGTDFTLRISRVEAEDTGVYYCMQGLHSPLSFGQGTKLEIK
3
FJ2246MP10B02 (Fab, V domains shown) VH: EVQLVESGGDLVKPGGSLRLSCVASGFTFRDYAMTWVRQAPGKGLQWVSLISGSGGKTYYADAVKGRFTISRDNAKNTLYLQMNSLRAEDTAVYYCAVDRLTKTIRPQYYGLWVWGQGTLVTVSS VL: DIVMTQTPLSLSVSPGETASISCRSSQSLLYSIGYNYLDWYLQKPGQSPQGLIYLGSKRASGVPDRFSGSGSGTDFTLRISRVEANDTGVYYCMQGLHSPLTFGQGTKLEIK
2.2
FJ2246MP07H09 (Fab, V domains shown) VH: EVQLVESGGDLVKPGGSLRLSCVASGFTFRDYAMTWVRQAPGKGLQWVSLINGSGGKTYYADAVKGRFTISRDNAKNTLYLQMNSLRAEDTAVYYCAVDRLTKTIRPQYYGLWSWGQGTLVTVSS VL: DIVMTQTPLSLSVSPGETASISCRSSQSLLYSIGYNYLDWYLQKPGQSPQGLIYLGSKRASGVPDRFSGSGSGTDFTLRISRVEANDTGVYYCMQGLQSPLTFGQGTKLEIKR
5.4
FJ2246MP10A09 (Fab, V domains shown) VH: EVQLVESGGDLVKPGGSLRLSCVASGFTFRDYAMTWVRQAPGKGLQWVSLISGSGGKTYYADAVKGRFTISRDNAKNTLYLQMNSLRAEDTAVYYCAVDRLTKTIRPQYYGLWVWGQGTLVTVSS VL: DIVMTQTPLSLSVSPGETASISCRSSQSLLYSIGYNYLDWYLQKPGQSPQGLIYLGSKRASGVPDRFSGSGSGTDFTLRISRVEAEDTGVYYCMQGLHSPLSFGQGTKLEIK
3.1

For the binder FJ2246MP06C10 (Fab, V domains shown) VH: EVQLVESGGDLVKPGGSLRLSCVASGFTFRDYAMTWVRQAPGKGLQWVSLINGSGGKTYYADAVKGRFTISRDNAKNTLYLQMNSLRAEDTAVYYCAVDRLTKTIRPQYYGLWVWGQGTLVTVSS VL: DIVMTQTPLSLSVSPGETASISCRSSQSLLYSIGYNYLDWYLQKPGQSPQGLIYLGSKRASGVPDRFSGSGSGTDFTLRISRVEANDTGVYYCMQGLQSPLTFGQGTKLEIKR , report Improvement over parental.
2.1
